- run-description: E. coli acrAB mutant growth effects, primary screen, E. coli filamentation inducers, strain DRC39, OD650, 24 h (AID 1178);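 note: growth measured as culture turbidity by optical density at 650 nm; test concentration not given here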
- condition-label: higher = more signal, called active from +8 up or from −8 down
Documented z-score across a set of compounds
Please respond with just the number, no unit label.

Past entries and their recorded results:
Challenge: Look up z-score: COC(=O)CC=C[C@@H](C)[C@H](OC)c1ccccc1Br
Response given: 0.25

Challenge: Look up z-score: O=C1c2ccccc2[C@@]2(Cc3ccccc3N(C3CC3)C2=O)[C@H](c2ccc(CO)cc2)N1Cc1ccccc1C(F)(F)F
Response given: -0.201

Challenge: Look up z-score: C=C(/C(=C/C[C@@H](OC(=O)c1ccncc1)c1ccc(OCCO)cc1)c1cnc2ccccc2c1)C(C)C
Response given: 0.872

Challenge: Look up z-score: CC(CCC(=O)OC[C@H]1O[C@H](C#Cc2ccccc2)C=C[C@@H]1Oc1ccc(C)cc1)=NOC[C@@H](O)[C@H]1O[C@@H]2OC(C)(C)O[C@@H]2[C@H]1O
Response given: 0.844

Challenge: Look up z-score: CC(CCN1CCCCc2nc(C)c(C)cc21)=NOC(C)CN1CCCc2nc(C)c(C)cc21 (stereo not drawn)
Response given: 0.529

Continuing:
Challenge: Look up z-score: CCCCCN1CC=CC23O[C@@H]4C=CCOC(=O)[C@@H]4[C@H]2C(=O)N(C(CO)C(C)C)[C@@H]3C1=O (stereo partly drawn)
Response given: -0.128

Challenge: Look up z-score: C=CC[C@@H]1C=C[C@H](ON=Cc2ccc(C(=O)N3[C@H](c4ccc(C)cc4)[C@@H](C)CC[C@H]3C(=O)OC)cc2)[C@@H](CO)O1
Response given: 0.442

Challenge: Look up z-score: O[C@@H](Cc1ccccc1)[C@H]1C2C=CCCC(c3ccccc3)=C2CN1Cc1cccc(Cl)c1 (stereo partly drawn)
Response given: 3.04

---

- run-description: A549 cell viability effects, profiling panel, calcein-AM fluorescence, 48 h, basal (AID 1162); note: test concentration not given here
- condition-label: higher = more signal
measurement-name: z-score
Please respond with just the number, no unit label.

Past entries and their recorded results:
Challenge: Look up z-score: CC(C)(C)N1CC=CC23O[C@@H]4C=CCCOC(=O)C4[C@H]2C(=O)N(CCCCCO)[C@@H]3C1=O (stereo partly drawn)
Response given: -0.415

Challenge: Look up z-score: CC(C)N1CC=CC23O[C@@H]4C=CCCOC(=O)C4[C@H]2C(=O)N(CCCCCCO)[C@@H]3C1=O (stereo partly drawn)
Response given: 0.647

Challenge: Look up z-score: O=C1[C@H]2[C@H]3[C@H](O)[C@H](O)CC(=NOCc4ccccc4)[C@H]3CC[C@H]2C(=O)N1c1cccc(Oc2ccccc2)c1
Response given: 0.382

Continuing:
Challenge: Look up z-score: CC(=O)C[C@H](O)[C@@H](NC(=O)OC(C)(C)C)C(C)C
Response given: 0.143

Challenge: Look up z-score: CCOC(=O)C1=CC[C@H]2C(=O)N(CC)C(=O)[C@@H]12
Response given: -0.148

Challenge: Look up z-score: COc1ccc([Si](C)(C)[C@H]2[C@H](CCO)O[C@@]3(C(=O)N(Cc4cccc(NC(=O)[C@H](C)O)c4)c4ccccc43)[C@@H]2C)cc1
Response given: -2.82

Challenge: Look up z-score: CCOC(=O)NN=C1C[C@@H](O)[C@@H](O)[C@@H]2[C@@H]3C(=O)N(C(C)(C)C)C(=O)[C@@H]3CC[C@@H]12
Response given: -0.571

Challenge: Look up z-score: COCCOC(=O)N1C(=O)[C@@]2(c3cc(C#Cc4ccc(OC)cc4)ccc31)[C@H](c1ccc(O)cc1)N1[C@H](c3ccccc3)[C@H](c3ccccc3)OC(=O)[C@H]1[C@@H]2C(N)=O
Response given: -0.64
